These data points were gathered from ChEMBL document CHEMBL4513146.

- Test system: Cryptococcus neoformans
- condition: Concentration 32 ug.mL-1; ASSAY_TEST Inhibition of Fungal Growth; detection method Resazurin; Absorption (OD600-OD570); plate type 384well; NBS; CORNING #3640
- Description: Antifungal activity against Cryptococcus neoformans H99 ATCC 208821 (CO-ADD:FG_002); MIC in YNB media using NBS plates, by Resazurin OD(600-570)
Results with a measured potency or affinity are listed apart.
parameter: Inhibition (%)
Number only, in %; omit the unit.

Incoming: Recorded Inhibition for CCc1nnc2c(S(=O)(=O)N(Cc3ccc(F)cc3)c3ccc(Cl)cc3)cccn12 , please?
Outgoing: -6.36

Incoming: Next compound: CCCc1nnc2c(=O)n(CC(=O)Nc3ccc(Br)cc3F)c3ccccc3n12
Outgoing: -24.08

Incoming: Next compound: CC(C)c1ccc(NC(=O)CSc2nc3ccccc3n3cnnc23)cc1
Outgoing: -15.4

Incoming: Next compound: CC(C)c1ccc(Oc2nc3ccccc3n3c(=O)n(CC(=O)Nc4ccc5c(c4)OCO5)nc23)cc1
Outgoing: -13.49

Incoming: Next compound: Cc1ccc(Sc2nccn3c(=O)n(CC(=O)Nc4cc(Cl)ccc4C)nc23)c(C)c1
Outgoing: -16.92

Incoming: Next compound: Cc1cccc(Oc2nccn3c(=O)n(CC(=O)NCCCc4ccccc4)nc23)c1C
Outgoing: -6.84

Incoming: Next compound: CC(C)CCNC(=O)CSc1nnc2c(=O)n(Cc3ccc(F)cc3)ccn12
Outgoing: -7.36

Incoming: Next compound: Cc1ccc(-c2noc(Cn3nc4ccc(-c5ccccc5)nn4c3=O)n2)cc1
Outgoing: -15.81

Incoming: Next compound: Cc1c(Cl)cccc1NC(=O)Cn1nc2c3c4c(sc3ncn2c1=O)CCCCC4
Outgoing: -27.44

Incoming: Next compound: COc1ccc(-c2cc3c4nnc(SCC(=O)Nc5cc(F)ccc5C)n4ccn3n2)cc1
Outgoing: -16.34

Incoming: Next compound: CCCCOc1ccc(-c2cc3c4nnc(SCC(=O)NCc5ccccc5)n4ccn3n2)cc1
Outgoing: -8.72

Incoming: Next compound: COc1ccc(NC(=O)Cn2c(=O)c3nnc(C)n3c3ccccc32)cc1Cl
Outgoing: -20.99

Incoming: Next compound: CCCCOc1ccc(-c2cc3c4nnc(SCC(=O)Nc5c(C)cccc5CC)n4ccn3n2)cc1
Outgoing: -12.87

Incoming: Next compound: CC(=O)c1ccc(NC(=O)Cn2nc3ccc(-c4ccc(C)c(C)c4)nn3c2=O)cc1
Outgoing: -8.82

Incoming: Next compound: O=C(CSc1nnc2c3cc(-c4ccccc4)nn3ccn12)Nc1cccc(Br)c1
Outgoing: -28.34

Incoming: Next compound: CCOC(=O)c1cccc(NC(=O)CSc2nc3ccccc3n3c(C(C)C)nnc23)c1
Outgoing: -15.16

Incoming: Next compound: O=C(CSc1nnc2c(=O)n(-c3ccc(F)cc3)ccn12)c1ccccc1Cl
Outgoing: -13.46

Incoming: Next compound: COc1cc(NC(=O)Cn2nc3ccc(-c4ccc(Cl)cc4)nn3c2=O)cc(OC)c1
Outgoing: -13.03

Incoming: Next compound: CCc1nnc2c(SCC(=O)Nc3cccc(C(C)=O)c3)nc3ccccc3n12
Outgoing: -10.94

Incoming: Next compound: O=C(Cn1nc2ccc(SCc3ccc(Cl)cc3)nn2c1=O)Nc1ccc2c(c1)OCO2
Outgoing: -22.42
